measured.target: KiSS-1 receptor (Homo sapiens, UniProt Q969F8)
Sequence (Q969F8 whole entry): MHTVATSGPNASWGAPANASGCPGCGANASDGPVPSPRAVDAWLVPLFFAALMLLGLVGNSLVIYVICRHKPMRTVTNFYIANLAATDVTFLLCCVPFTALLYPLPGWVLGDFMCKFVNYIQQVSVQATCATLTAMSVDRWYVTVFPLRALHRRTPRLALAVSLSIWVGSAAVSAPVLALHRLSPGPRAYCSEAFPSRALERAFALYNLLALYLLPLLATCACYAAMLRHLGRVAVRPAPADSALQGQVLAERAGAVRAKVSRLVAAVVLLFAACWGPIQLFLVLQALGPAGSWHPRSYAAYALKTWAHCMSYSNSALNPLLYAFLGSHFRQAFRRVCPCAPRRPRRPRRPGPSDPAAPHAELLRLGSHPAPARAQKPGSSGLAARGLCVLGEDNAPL
experimental.details: Displacement of [125I]kisspeptin-15 from human GPR54 expressed in CHO cell membrane
pIC50: −log10 of the molar value.
Class True: pIC50 at least 7. Class False: pIC50 below 7.

entry.smiles: CC(C)C[C@H](NC(=O)CNC(=O)[C@H](Cc1ccccc1)NC(=O)[C@H](CO)NC(=O)[C@H](CC(N)=O)NC(=O)[C@H](Cc1c[nH]c2ccccc12)NC(=O)[C@H](CC(N)=O)NC(=O)[C@@H](N)Cc1ccc(O)cc1)C(=O)N[C@@H](CCCNC(=N)N)C(=O)N[C@@H](Cc1ccccc1)C(N)=O
measured.target: KiSS-1 receptor (Homo sapiens, UniProt Q969F8)
group: True

Hi team, for `CC(C)C[C@@H](C[C@@H](O)CNC(=O)[C@H](Cc1ccccc1)NC(=O)c1ccc(F)cc1)C(=O)N[C@@H](CCCN=C(N)N)C(=O)N[C@@H](Cc1c[nH]c2ccccc12)C(N)=O` , is the recorded pIC50 at or above 7?
False

====

Answer each item with its documented EC50.
measured.target: KiSS-1 receptor (Homo sapiens)
experimental.details: Agonist activity at human GPR54 expressed in CHO cells assessed as effect on kisspeptin-10-induced response by FLIPR assay
Answers are plain numbers, in nM.

entry.smiles: CC(C)C[C@H](/C=C/CNC(=O)[C@H](Cc1ccccc1)NC(=O)c1ccc(F)cc1)C(=O)N[C@@H](CCCN=C(N)N)C(=O)N[C@@H](Cc1c[nH]c2ccccc12)C(N)=O
assay.value: 0.3

GET /values?readout=EC50&system=KiSS-1 receptor (Homo sapiens)&item= `CC(C)C[C@H](NC(=O)CNC(=O)[C@H](Cc1ccccc1)NC(=O)c1ccc(F)cc1)C(=O)N[C@@H](CCCN=C(N)N)C(=O)N[C@@H](Cc1c[nH]c2ccccc12)C(N)=O`
0.45

====

experimental.details: Stability in mouse serum assessed as half life
Assay type: ADME, cell-free
test.readout: half-life (min)
Give bare numbers, in min.

Consider the following items and state reported half-life for each.
1. CC(C)C/C(=C\CCNC(=O)[C@H](Cc1ccccc1)NC(=O)c1ccc(F)cc1)C(=O)N[C@@H](CCCNC(=N)N)C(=O)N[C@@H](Cc1c[nH]c2ccccc12)C(N)=O
2. CC(C)C[C@H](CCCNC(=O)[C@H](Cc1ccccc1)NC(=O)c1ccc(F)cc1)C(=O)N[C@@H](CCCNC(=N)N)C(=O)N[C@@H](Cc1c[nH]c2ccccc12)C(N)=O

1. 52
2. 45

Which measured half-life value corresponds to `CC(C)C[C@H](C[C@@H](O)CNC(=O)[C@H](Cc1ccccc1)NC(=O)c1ccc(F)cc1)C(=O)N[C@@H](CCCNC(=N)N)C(=O)N[C@@H](Cc1c[nH]c2ccccc12)C(N)=O` ?
54

====

measured.target: 72 kDa type IV collagenase (Homo sapiens) (UniProt P08253)
Sequence (P08253 110-660 limits assumed): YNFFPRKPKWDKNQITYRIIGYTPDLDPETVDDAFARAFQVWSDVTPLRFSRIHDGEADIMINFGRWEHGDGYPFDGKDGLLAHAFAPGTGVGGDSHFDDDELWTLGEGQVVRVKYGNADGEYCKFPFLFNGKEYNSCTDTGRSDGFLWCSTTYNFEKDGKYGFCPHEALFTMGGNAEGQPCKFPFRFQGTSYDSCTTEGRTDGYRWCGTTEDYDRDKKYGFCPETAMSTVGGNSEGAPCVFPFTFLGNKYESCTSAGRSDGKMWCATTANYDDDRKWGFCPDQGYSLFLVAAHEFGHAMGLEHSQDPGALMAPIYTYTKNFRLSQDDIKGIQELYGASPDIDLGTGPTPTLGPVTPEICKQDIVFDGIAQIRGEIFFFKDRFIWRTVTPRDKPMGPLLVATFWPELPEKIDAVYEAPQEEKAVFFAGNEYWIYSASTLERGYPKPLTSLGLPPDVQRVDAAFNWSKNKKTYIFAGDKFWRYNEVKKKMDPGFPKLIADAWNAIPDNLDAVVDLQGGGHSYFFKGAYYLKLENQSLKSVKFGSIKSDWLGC
experimental.details: Inhibition of MMP2 at 10 uM by fluorimetric assay
Design: scale not given: the % may be the effect or the level left
test.readout: Activity (%)
Numbers only, in %.

entry.smiles: CC(C)C[C@H](C[C@@H](O)CNC(=O)[C@H](Cc1ccccc1)NC(=O)c1ccc(F)cc1)C(=O)N[C@@H](CCCNC(=N)N)C(=O)N[C@@H](Cc1c[nH]c2ccccc12)C(N)=O
measured.target: 72 kDa type IV collagenase (Homo sapiens) (UniProt P08253)
value.units: %
Activity: 96.2
--
entry.smiles: CC(C)C/C(=C\[C@H](O)CNC(=O)[C@H](Cc1ccccc1)NC(=O)c1ccc(F)cc1)C(=O)N[C@@H](CCCNC(=N)N)C(=O)N[C@@H](Cc1c[nH]c2ccccc12)C(N)=O
measured.target: 72 kDa type IV collagenase (Homo sapiens) (UniProt P08253)
value.units: %
Activity: 96.9
--
entry.smiles: CC(C)C[C@H](CCCNC(=O)[C@H](Cc1ccccc1)NC(=O)c1ccc(F)cc1)C(=O)N[C@@H](CCCNC(=N)N)C(=O)N[C@@H](Cc1c[nH]c2ccccc12)C(N)=O
measured.target: 72 kDa type IV collagenase (Homo sapiens) (UniProt P08253)
value.units: %
Activity: 97.1

Consider the following items and state reported Activity for each.
1. CC(C)C[C@H](C[C@H](O)CNC(=O)[C@H](Cc1ccccc1)NC(=O)c1ccc(F)cc1)C(=O)N[C@@H](CCCNC(=N)N)C(=O)N[C@@H](Cc1c[nH]c2ccccc12)C(N)=O
2. CC(C)C[C@H](/C=C/CNC(=O)[C@H](Cc1ccccc1)NC(=O)c1ccc(F)cc1)C(=O)N[C@@H](CCCNC(=N)N)C(=O)N[C@@H](Cc1c[nH]c2ccccc12)C(N)=O
3. CC(C)C[C@@H](C[C@H](O)CNC(=O)[C@H](Cc1ccccc1)NC(=O)c1ccc(F)cc1)C(=O)N[C@@H](CCCNC(=N)N)C(=O)N[C@@H](Cc1c[nH]c2ccccc12)C(N)=O
4. CC(C)C[C@@H](C[C@@H](O)CNC(=O)[C@H](Cc1ccccc1)NC(=O)c1ccc(F)cc1)C(=O)N[C@@H](CCCNC(=N)N)C(=O)N[C@@H](Cc1c[nH]c2ccccc12)C(N)=O

1: 98.7; 2: 101; 3: 99.3; 4: 96.5

Consider the following items and state reported Activity for each.
1. CC(C)C/C(=C\[C@@H](O)CNC(=O)[C@H](Cc1ccccc1)NC(=O)c1ccc(F)cc1)C(=O)N[C@@H](CCCNC(=N)N)C(=O)N[C@@H](Cc1c[nH]c2ccccc12)C(N)=O
2. CC(C)C/C(=C\CCNC(=O)[C@H](Cc1ccccc1)NC(=O)c1ccc(F)cc1)C(=O)N[C@@H](CCCNC(=N)N)C(=O)N[C@@H](Cc1c[nH]c2ccccc12)C(N)=O

1. 99.1
2. 94.5

Entry source: ChEMBL document CHEMBL1140226
